Record form. Attribute: koff. Fill in for each entry.
molecular target: T1, recombinant extracellular domain of CD38 (human, UniProt P28907 43-300); test: Biacore SPR
T1 construct: also called CD38 extracellular domain; AtaGenix ATMP00140HU
Value expressed in s⁻¹; do not type the unit.

Any idea what koff was measured for FTL004-hu-3 (antibody, human IgG1, kappa, V domains shown, also called FLT004-hu-3; FTL004-hum-3) VH: QVQLVQSGSELKKPGASVKVSCKASGYTFTDYNVHWIRQAPGQGLEWIGYFYPRNGATHYNQKFTGRAVLSADTSVSTAYLQISSLKAEDTAVYFCARGETPGTFPYWGQGTLVTVSS VL: EIVLTQSPATLSLSPGERATLSCRASESVDNFGITFMHWYQQKPGQAPRLLIYRASNLESGIPARFSGSGSRTDFTLTISSLEPEDFAVYYCQQSSKDPRTFGQGTKLEIKR ?
0.00052

Requested read-out: koff. Entry: FTL004-hu-5 (antibody, human IgG1, kappa, V domains shown, also called FLT004-hu-5; FTL004-hum-5) VH: QVQLVQSGSELKKPGASVKVSCKASGYTFTDYNVHWIRQAPGQGLEWIGYFYPRNGATHYNQKFTGRAVLSADTSVSTAYLQISSLKAEDTAVYFCARGETPGTFPYWGQGTLVTVSS VL: DIQLTQSPSSLSASVGDRVTITCRASESVDNFGITFMHWYQQKPGKAPKLLIYRASNLESGVPSRFSGSGSRTDFTLTISSLQPEDFATYYCQQSSKDPRTFGQGTKLEIKR
0.000686

What value of koff has been recorded for this entry: FTL004-hu-12 (antibody, human IgG1, kappa, V domains shown, also called FLT004-hu-12; FTL004-hum-12) VH: QVQLVQSGAEVKKPGASVKVSCKASGYTFTDYNVHWIRQAPGQGLEWIGYFYPRNGATHYNQKFTGRATLTVDTSTSTAYMEISSLRSEDTAVYFCARGETPGTFPYWGQGTLVTVSS VL: DIQLTQSPSSLSASVGDRVTITCQASESVDNFGITFMHWYQQKPGKAPKLLIYRASNLETGVPSRFSGSGSRTDFTFTISSLQPEDIATYYCQQSSKDPRTFGQGTKLEIKR
0.00083

Report koff for H2 antibody (antibody, V domains shown, Murine monoclonal antibody from a BALB/c hybridoma; also called H2 mAb; Hybridoma-2) VH: EVQLQESGAELVRSGASVKMSCKASGYTFTDYNVHWIKQTPGQGLEWIGYFYPRNGATHYNQKFTGKATLTADTSSSTAYIQISSLTSEDSAVYFCARGETPGTFPYWGQGTLVTVSA VL: DIVLTQSPASLTVSLGQRATISCRASESVDNFGITFMHWYQQKPGQPPKLLIYRASNLESGIPARFSGSGSRTDFTLTIDPVETDDVATYYCQQSSKDPRTFGGGTKLEIK please.
0.0005

Could you share which koff value was measured for FTL004-hu-9 (antibody, human IgG1, kappa, V domains shown, also called FLT004-hu-9; FTL004-hum-9) VH: QVQLVQSGAEVKKPGASVKVSCKASGYTFTDYNVHWIRQAPGQGLEWIGYFYPRNGATHYNQKFTGRATLTVDTSTSTAYMEISSLRSEDTAVYFCARGETPGTFPYWGQGTLVTVSS VL: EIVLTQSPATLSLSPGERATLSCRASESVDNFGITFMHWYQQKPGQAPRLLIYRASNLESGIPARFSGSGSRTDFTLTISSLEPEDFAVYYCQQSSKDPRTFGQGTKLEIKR ?
0.000699
